System: Green Peach Aphid (Myzus Persicae)
Test: Insecticidal test for green peach aphid in foliar spray assay (col. MYZUPE)
Type: in vivo
Conditions: green peach aphid
Metric Name: MYZUPE 200 ppm (Corrected % Control, rating)

1) CC(=O)OC(C)C(=O)N(C)c1sc(-c2cccnc2)nc1Cl (stereo not drawn) [Compound 336]    A (80-100)
2) CN(C(=O)c1ccc(=O)n(C)n1)c1sc(-c2cccnc2)nc1Cl [Compound 405]    A (80-100)
3) CN(C(=O)c1ccc([S+](C)[O-])cc1)c1sc(-c2cccnc2)nc1Cl (stereo not drawn) [Compound 403]    A (80-100)
4) CN(C(=O)c1ccns1)c1sc(-c2cccnc2)nc1Cl [Compound 346]    B (Less than 80)
5) Cc1nc(-c2cccnc2)sc1N(C)C(=O)c1cnco1 [Compound 343]    A (80-100)
6) CN(C(=O)C1CCN1C(=O)OC(C)(C)C)c1sc(-c2cccnc2)nc1Cl (stereo not drawn) [Compound 339]    B (Less than 80)

###

Metric Name: melting point

1. Cc1nc(-c2cccnc2)sc1NC(=O)CCCCl [Compound 209]    144 to 147 °C
2. CC(CS(C)(=O)=O)C(=O)N(C)c1sc(-c2cnc(Cl)c(F)c2)nc1Cl (centres unmarked) [Compound 475]    55 to 61 °C
3. Cc1nc(-c2cncc(F)c2)sc1NC(=O)C(C)CS(C)(=O)=O (centres unmarked) [Compound 146]    187 to 189 °C
4. Cc1nc(-c2cccnc2)sc1NC(=O)Cn1nc(C)c(S(=O)(=O)N(C)C)c1C [Compound 389]    214 to 215 °C
5. CSCC(C)(C)C(=O)N(C)c1sc(-c2cccnc2)nc1Cl [Compound 264]    103 to 106 °C
6. CSCCC(=O)Nc1sc(-c2cncc(F)c2)nc1Br [Compound 298]    160 to 163 °C
7. CSCCC(=O)Nc1sc(-c2cncc(F)c2)nc1Cl [Compound 421]    153 to 154 °C
8. CN(C(=O)C(C)(C)C[S+](C)[O-])c1cnc(-c2cccnc2)s1 (centres unmarked) [Compound 80]    118 to 122 °C
9. CSCC(C)(C)C(=O)N(C)c1cnc(-c2cccnc2)s1 [Compound 29]    92 to 94 °C
10. CN(C(=O)CCS(C)(=O)=O)c1sc(-c2ccc(F)nc2)nc1Cl [Compound 470]    42 to 46 °C
11. CCN(C(=O)OC(C)(C)C)c1cnc(-c2cccnc2)s1 [Compound 477]    65 to 67 °C
12. CSCCC(=O)Nc1sc(-c2cccnc2)nc1C [Compound 55]    136 to 139 °C
13. CSC(C)(C)CC(=O)N(C)c1sc(-c2cncc(F)c2)nc1C [Compound 212]    73 to 80 °C
14. CSCC(C)C(=O)N(C)c1cnc(-c2cccnc2)s1 (centres unmarked) [Compound 28]    98 to 100 °C
15. CC(C[S+](C)[O-])C(=O)N(C)c1cnc(-c2cncc(F)c2)s1 (centres unmarked) [Compound 81]    68 to 70 °C
16. Cc1nc(-c2cccnc2)sc1NC(=O)OC1CCCCC1 [Compound 375]    163 to 167 °C
17. CN(CC[S+](C)[O-])C(=O)N(C)c1cnc(-c2cncc(F)c2)s1 (centres unmarked) [Compound 83]    95 to 99 °C
18. CCN(C(=O)C(C)CS(C)(=O)=O)c1sc(-c2cccnc2)nc1Cl (centres unmarked) [Compound 349]    152 to 154 °C
19. COc1cncc(-c2nc(C)c(NC(=O)OC(C)(C)C)s2)c1 [Compound 175]    136 to 140 °C
20. CN(C(=O)OC(C)(C)C)c1sc(-c2cccnc2)nc1Br [Compound 242]    88 to 91 °C

###

System: Sweetpotato Whitefly-Crawler (Bemisia Tabaci)
Assay: Insecticidal test for sweetpotato whitefly-crawler in foliar spray assay (col. BEMITA)
Format: in vivo
Conditions: Bemisia tabaci, sweetpotato whitefly-crawler, read-out: BEMITA 200 ppm (Corrected % Control, rating)
Metric Name: pest or weed control at 200 ppm

1) CC(=O)Nc1sc(-c2cccnc2)nc1C [Compound 186]    < 80%
2) Cc1nc(-c2cncc(F)c2)sc1N(C)C(=O)C(C)CS(=O)(Cc1ccc(Cl)nc1)=NC#N (centres unmarked) [Compound 167]    80 to 100%
3) CN(C(=O)OC(C)(C)C)c1cnc(-c2cncc(F)c2)s1 [Compound 243]    80 to 100%
4) CSCCC(=O)N(C)c1cnc(-c2cncc(F)c2)s1 [Compound 30]    < 80%
5) CN(C(=O)C(F)(F)F)c1sc(-c2cccnc2)nc1Cl [Compound 6]    < 80%
6) CSCC(Cc1ccccc1)C(=O)N(C)c1sc(-c2cccnc2)nc1Cl (centres unmarked) [Compound 331]    80 to 100%
7) CSCC(C)C(=O)Nc1sc(-c2cncc(Cl)c2)nc1C (centres unmarked) [Compound 17]    80 to 100%
8) Cc1nc(-c2cccnc2)sc1NC(=O)c1ccns1 [Compound 344]    < 80%
9) CSC(C)C(C)C(=O)N(C)c1sc(-c2cncc(F)c2)nc1C (centres unmarked) [Compound 215]    80 to 100%
10) CN(C(=O)c1cccc(SC(F)F)c1)c1sc(-c2cccnc2)nc1Cl [Compound 382]    < 80%
11) CCN(C(=O)CC[S+](C)[O-])c1sc(-c2cccnc2)nc1C (centres unmarked) [Compound 238]    80 to 100%
12) CSCC(C)(C)C(=O)N(C)c1sc(-c2cncc(F)c2)nc1C [Compound 39]    80 to 100%
13) Cc1nc(-c2cccnc2)sc1NC(=O)OC1CCCCC1 [Compound 375]    < 80%
14) Cc1cc(C(=O)N(C)c2sc(-c3cccnc3)nc2Cl)ccn1 [Compound 407]    < 80%
15) CCN(C(=O)C(C)CSC)c1sc(-c2cccnc2)nc1Cl (centres unmarked) [Compound 316]    < 80%
16) CSCC[C@H](NC(=O)OC(C)(C)C)C(=O)N(C)c1sc(-c2cccnc2)nc1C [Compound 281]    < 80%
17) COCC(C)OC(=O)Nc1sc(-c2cccnc2)nc1C (centres unmarked) [Compound 325]    80 to 100%

###

// reported melting point for each item listed
Metric Name: melting point

1. CC(C)(C)OC(=O)N(C(=O)OC(C)(C)C)c1sc(-c2cncc(F)c2)nc1Br [Compound 317]    154 to 156 °C
2. CCN(C(=O)c1cscn1)c1sc(-c2cccnc2)nc1Cl [Compound 529]    82 to 86 °C
3. CC(C)C(=O)N(C)c1cnc(-c2cccnc2)s1 [Compound 24]    113 to 114 °C
4. CSCC(C)C(=O)N(C)c1cnc(-c2cncc(F)c2)s1 (centres unmarked) [Compound 31]    75 to 77 °C
5. CN(C(=O)C(C)(C)C)c1cnc(-c2cccnc2)s1 [Compound 23]    102 to 105 °C
6. CN(C(=O)CC[S+](C)[O-])c1sc(-c2cncnc2)nc1Cl (centres unmarked) [Compound 510]    137 to 140 °C
7. CCN(C(=O)c1cocn1)c1sc(-c2cccnc2)nc1Cl [Compound 570]    118 to 120 °C
8. CN(C(=O)OC(C)(C)C)c1sc(-c2cncc(F)c2)nc1I [Compound 497]    70 to 71 °C
9. C=CCN(C(=O)OC(C)(C)C)c1sc(-c2cccnc2)nc1C [Compound 356]    72 to 76 °C
10. CN(C(=O)OC(C)(C)C)c1cnc(-c2cncc(F)c2)s1 [Compound 243]    148 to 151 °C
11. CCCNC(=O)N(C)c1sc(-c2cccnc2)nc1C [Compound 391]    150 to 151 °C
12. Cc1nc(-c2cncc(F)c2)sc1NC(=O)C1CCSC1 (centres unmarked) [Compound 219]    209 to 213 °C
13. Cc1nc(-c2cncc(F)c2)sc1N(C)C(=O)C1CCCN(C(=O)OC(C)(C)C)C1 (centres unmarked) [Compound 580]    51 to 60 °C
14. Cc1nc(-c2cncc(F)c2)sc1NC(=O)C(C)(C)C[S+](C)[O-] (centres unmarked) [Compound 143]    160 to 163 °C
15. Cc1nc(-c2cccnc2)sc1NC(=O)C(C)CS(C)(=O)=O (centres unmarked) [Compound 99]    175 to 180 °C
16. Cc1nc(-c2cccnc2)sc1NC(=O)CCS(C)(=O)=O [Compound 100]    222 to 224 °C
17. Cc1nc(-c2cccnc2)sc1NC(=O)OCC(F)(F)F [Compound 380]    170 to 178 °C
18. CN(C(=O)CCS(C)(=O)=O)c1sc(-c2cncc(F)c2)nc1Br [Compound 455]    198 to 201 °C
19. CC(=O)Nc1sc(-c2cccnc2)nc1C [Compound 186]    180 to 182 °C
20. CC(C)(C)OC(=O)N(COCc1ccccc1)c1cnc(-c2cccnc2)s1 [Compound 265]    98 to 99 °C
21. CN(C(=O)CC[S+](C)[O-])c1sc(-c2cncc(F)c2)nc1Cl (centres unmarked) [Compound 272]    123 to 126 °C
22. Cc1nc(-c2cncc(F)c2)sc1NC(=O)C(C)C [Compound 140]    155 to 159 °C
23. COc1ccc(CN(C(=O)OC(C)(C)C)c2cnc(-c3cccnc3)s2)cc1 [Compound 244]    124 to 126 °C
24. CCN(C(=O)C(C)CSC)c1sc(-c2cccnc2)nc1Cl (centres unmarked) [Compound 316]    79 to 81 °C
25. Cc1nc(-c2cccnc2)sc1NC(=O)OC(C)C(F)(F)F (centres unmarked) [Compound 378]    133 to 137 °C
26. Cc1nc(-c2cncc(F)c2)sc1NC(=O)CC[S+](C)[O-] (centres unmarked) [Compound 147]    181 to 184 °C
27. Cc1nc(-c2cccnc2)sc1NC(=O)C(C)C[S+](C)[O-] (centres unmarked) [Compound 92]    160 to 163 °C
28. CSC(C)C(=O)N(C)c1sc(-c2cccnc2)nc1Cl (centres unmarked) [Compound 361]    97 to 104 °C
29. CN(C(=O)OC(C)(C)C)c1sc(-c2cncc(F)c2)nc1Br [Compound 318]    108 to 110 °C
30. C=CC[S+]([O-])CC(C)C(=O)Nc1sc(-c2cccnc2)nc1C (centres unmarked) [Compound 225]    147 to 149 °C
31. CCCCOC(=O)Nc1sc(-c2cccnc2)nc1C [Compound 377]    108 to 110 °C
32. Cc1nc(-c2cccnc2)sc1NC(=O)C(C)(C)CS(C)(=O)=O [Compound 101]    134 to 136 °C
